- Experimental Target: panel of 442 kinases (Homo sapiens)
- Construct: purchased KINOMEscan
- Assay type: binding
- Condition Label: Compound Concentration 10 µM
Exercise: for every item that follows, state its recorded KINOMEscan: FGFR3.
Reply with just the number.

IN: Lab note: panel of 442 kinases (Homo sapiens) assay, enter KINOMEscan: FGFR3 for COc1cc(C(=O)N2CCC(N3CCN(C)CC3)CC2)ccc1Nc1ncc2c(n1)N(C)c1ccccc1C(=O)N2C [15 (LRRK2-IN-1)] here
OUT: 80

IN: Lab note: panel of 442 kinases (Homo sapiens) assay, enter KINOMEscan: FGFR3 for CCOc1cc(C(=O)N2CCC(N3CCN(C)CC3)CC2)ccc1Nc1ncc2c(n1)N(C1CCCC1)c1ccccc1C(=O)N2C [Compound 26] here
OUT: 100

IN: Lab note: panel of 442 kinases (Homo sapiens) assay, enter KINOMEscan: FGFR3 for COc1cc(C(=O)N2CCC(N3CCN(C)CC3)CC2)ccc1Nc1ncc2c(n1)N(C1CCCC1)c1ccccc1C(=O)N2C [Compound 25] here
OUT: 88

IN: Lab note: panel of 442 kinases (Homo sapiens) assay, enter KINOMEscan: FGFR3 for COc1cc(C(=O)N2CCC(N3CCN(C)CC3)CC2)ccc1Nc1ncc2c(n1)N1CCc3cccc(c31)C(=O)N2C [Compound 24] here
OUT: 80

====

- Experimental Target: panel of 442 kinases (Homo sapiens)
- Construct: purchased KINOMEscan
- Assay type: binding
- Condition Label: kinase TNK1; compound concentration 10 µM
Measured Property: % Ctrl, TNK1 (% Ctrl)
Reply numerically in % Ctrl, unit not repeated.

IN: Name the recorded % Ctrl, TNK1 of the item COc1cc(C(=O)N2CCC(N3CCN(C)CC3)CC2)ccc1Nc1ncc2c(n1)N(C)c1ccccc1C(=O)N2C in your answer.
OUT: 2.8

IN: Name the recorded % Ctrl, TNK1 of the item COc1cc(C(=O)N2CCC(N3CCN(C)CC3)CC2)ccc1Nc1ncc2c(n1)N(C1CCCC1)c1ccccc1C(=O)N2C in your answer.
OUT: 7.8

IN: Name the recorded % Ctrl, TNK1 of the item COc1cc(C(=O)N2CCC(N3CCN(C)CC3)CC2)ccc1Nc1ncc2c(n1)N1CCc3cccc(c31)C(=O)N2C in your answer.
OUT: 5

IN: Name the recorded % Ctrl, TNK1 of the item CCOc1cc(C(=O)N2CCC(N3CCN(C)CC3)CC2)ccc1Nc1ncc2c(n1)N(C1CCCC1)c1ccccc1C(=O)N2C in your answer.
OUT: 53

====

- Experimental Target: panel of 442 kinases (Homo sapiens, UniProt O14730)
- Construct: purchased KINOMEscan
- Sequence (O14730 whole entry): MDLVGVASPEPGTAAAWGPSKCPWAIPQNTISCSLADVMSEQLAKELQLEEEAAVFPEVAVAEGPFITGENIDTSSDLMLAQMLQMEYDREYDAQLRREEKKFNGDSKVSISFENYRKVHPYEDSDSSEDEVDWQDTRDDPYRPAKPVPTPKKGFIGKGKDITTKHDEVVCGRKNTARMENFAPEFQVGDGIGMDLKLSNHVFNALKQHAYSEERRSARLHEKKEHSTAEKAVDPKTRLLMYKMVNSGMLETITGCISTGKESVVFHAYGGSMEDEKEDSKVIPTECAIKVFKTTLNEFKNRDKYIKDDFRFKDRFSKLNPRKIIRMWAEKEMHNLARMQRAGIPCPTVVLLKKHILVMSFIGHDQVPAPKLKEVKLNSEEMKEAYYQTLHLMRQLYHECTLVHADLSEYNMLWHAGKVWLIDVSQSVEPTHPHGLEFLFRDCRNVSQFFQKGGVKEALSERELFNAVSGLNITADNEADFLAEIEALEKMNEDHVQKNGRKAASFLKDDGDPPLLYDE
- Assay type: binding
- Condition Label: Compound Concentration 10 µM
Exercise: for every item that follows, state its recorded KINOMEscan: RIOK3.
Reply with just the number.

IN: Name the recorded KINOMEscan: RIOK3 of the item COc1cc(C(=O)N2CCC(N3CCN(C)CC3)CC2)ccc1Nc1ncc2c(n1)N(C)c1ccccc1C(=O)N2C in your answer.
OUT: 85

IN: Name the recorded KINOMEscan: RIOK3 of the item COc1cc(C(=O)N2CCC(N3CCN(C)CC3)CC2)ccc1Nc1ncc2c(n1)N(C1CCCC1)c1ccccc1C(=O)N2C in your answer.
OUT: 84

IN: Name the recorded KINOMEscan: RIOK3 of the item COc1cc(C(=O)N2CCC(N3CCN(C)CC3)CC2)ccc1Nc1ncc2c(n1)N1CCc3cccc(c31)C(=O)N2C in your answer.
OUT: 74

IN: Name the recorded KINOMEscan: RIOK3 of the item CCOc1cc(C(=O)N2CCC(N3CCN(C)CC3)CC2)ccc1Nc1ncc2c(n1)N(C1CCCC1)c1ccccc1C(=O)N2C in your answer.
OUT: 89

====

Exercise: for every item that follows, state its recorded EC50.
- Experimental Target: ERK5 (Homo sapiens)
- Protocol Details: ERK5 autophosphorylation assay (EGF-stimulated, mobility shift immunoblot)
- Condition Label: inhibition of EGF-stimulated autophosphorylation of ERK5 in HeLa cells; read-out: Cellular EC50 (ERK5)
Reply numerically in nM, unit not repeated.

IN: Name the recorded EC50 of the item COc1cc(C(=O)N2CCC(N3CCN(C)CC3)CC2)ccc1Nc1ncc2c(n1)N(C1CCCC1)c1ccccc1C(=O)N2C [Compound 25] in your answer.
OUT: 80

IN: Name the recorded EC50 of the item COc1cc(N2CCN(C)CC2)ccc1Nc1ncc2c(n1)N(C)c1cc(Cl)ccc1C(=O)N2C [Compound 21] in your answer.
OUT: 1240

IN: Name the recorded EC50 of the item COc1cc(N2CCOCC2)ccc1Nc1ncc2c(n1)N(C)c1ccccc1C(=O)N2C [Compound 7] in your answer.
OUT: 260

IN: Name the recorded EC50 of the item COc1cc(N2CCN(C)CC2)ccc1Nc1ncc2c(n1)N(C)c1cc(C)ccc1C(=O)N2C [Compound 23] in your answer.
OUT: 3100

IN: Name the recorded EC50 of the item COc1cc(NCCN(C)C)ccc1Nc1ncc2c(n1)N(C)c1ccccc1C(=O)N2C [Compound 13] in your answer.
OUT: 240

====

- Experimental Target: ERK5 (Homo sapiens, UniProt Q13164)
- Sequence (Q13164 whole entry): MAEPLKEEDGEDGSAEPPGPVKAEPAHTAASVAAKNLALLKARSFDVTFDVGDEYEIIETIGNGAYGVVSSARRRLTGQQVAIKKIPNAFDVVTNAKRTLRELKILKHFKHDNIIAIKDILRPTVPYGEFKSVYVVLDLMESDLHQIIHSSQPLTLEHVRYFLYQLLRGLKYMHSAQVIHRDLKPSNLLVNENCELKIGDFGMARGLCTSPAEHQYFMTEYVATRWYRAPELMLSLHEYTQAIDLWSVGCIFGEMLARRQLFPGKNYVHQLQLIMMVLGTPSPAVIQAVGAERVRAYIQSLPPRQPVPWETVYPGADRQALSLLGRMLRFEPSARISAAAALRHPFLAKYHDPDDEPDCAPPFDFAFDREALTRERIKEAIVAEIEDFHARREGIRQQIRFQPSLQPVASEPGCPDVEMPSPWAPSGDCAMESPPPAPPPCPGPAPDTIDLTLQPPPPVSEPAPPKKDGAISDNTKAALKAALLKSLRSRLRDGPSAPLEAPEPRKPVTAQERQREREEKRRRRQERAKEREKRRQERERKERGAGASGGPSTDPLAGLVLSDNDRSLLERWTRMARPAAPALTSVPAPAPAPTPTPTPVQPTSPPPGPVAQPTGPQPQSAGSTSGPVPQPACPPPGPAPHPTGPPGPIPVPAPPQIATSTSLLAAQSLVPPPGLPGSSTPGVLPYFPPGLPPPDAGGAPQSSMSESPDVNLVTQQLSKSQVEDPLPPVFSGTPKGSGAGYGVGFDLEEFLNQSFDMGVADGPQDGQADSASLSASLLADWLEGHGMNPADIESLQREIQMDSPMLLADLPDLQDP
- Protocol Details: ERK5 kinase activity in vitro assay (32P-ATP, PIMtide substrate)
- Condition Label: in vitro assay, recombinant active ERK5; read-out: Enzymatic IC50 (ERK5)
Measured Property: IC50

IN: Name the recorded IC50 of the item COc1cc(C(=O)N2CCC(N3CCN(C)CC3)CC2)ccc1Nc1ncc2c(n1)N1CCc3cccc(c31)C(=O)N2C in your answer.
OUT: 199 nM

IN: Name the recorded IC50 of the item COc1cc(N2CCN(C)CC2)ccc1Nc1ncc2c(n1)N(C1CCCC1)c1ccccc1C(=O)N2C in your answer.
OUT: 146 nM

IN: Name the recorded IC50 of the item COc1cc(NCCN(C)C)ccc1Nc1ncc2c(n1)N(C)c1ccccc1C(=O)N2C in your answer.
OUT: 140 nM

====

Exercise: for every item that follows, state its recorded KINOMEscan: FER.
- Experimental Target: panel of 442 kinases (Homo sapiens, UniProt P16591)
- Construct: purchased KINOMEscan
- Sequence (P16591 whole entry): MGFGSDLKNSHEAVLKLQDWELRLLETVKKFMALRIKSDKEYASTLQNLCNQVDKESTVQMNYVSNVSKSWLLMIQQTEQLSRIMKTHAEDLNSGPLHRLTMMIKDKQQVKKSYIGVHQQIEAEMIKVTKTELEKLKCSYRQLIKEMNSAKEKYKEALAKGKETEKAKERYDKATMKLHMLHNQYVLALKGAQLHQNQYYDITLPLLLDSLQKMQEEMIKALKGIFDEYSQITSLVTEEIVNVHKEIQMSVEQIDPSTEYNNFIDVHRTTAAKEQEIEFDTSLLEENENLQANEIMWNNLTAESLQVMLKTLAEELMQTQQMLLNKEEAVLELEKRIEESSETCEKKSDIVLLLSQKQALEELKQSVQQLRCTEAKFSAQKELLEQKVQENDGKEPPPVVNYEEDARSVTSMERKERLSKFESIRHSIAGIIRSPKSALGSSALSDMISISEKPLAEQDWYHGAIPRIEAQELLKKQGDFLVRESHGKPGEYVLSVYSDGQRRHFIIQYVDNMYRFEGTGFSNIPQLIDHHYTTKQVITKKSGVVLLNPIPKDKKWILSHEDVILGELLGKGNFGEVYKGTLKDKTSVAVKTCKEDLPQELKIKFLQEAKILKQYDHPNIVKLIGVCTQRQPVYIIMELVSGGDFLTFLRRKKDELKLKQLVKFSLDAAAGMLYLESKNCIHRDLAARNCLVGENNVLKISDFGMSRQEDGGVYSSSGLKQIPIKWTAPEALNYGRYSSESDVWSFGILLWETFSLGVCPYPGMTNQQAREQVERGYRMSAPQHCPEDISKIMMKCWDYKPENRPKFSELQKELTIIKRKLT
- Format: binding
- Condition Label: Compound Concentration 10 µM
Reply with just the number.

IN: Name the recorded KINOMEscan: FER of the item CCOc1cc(C(=O)N2CCC(N3CCN(C)CC3)CC2)ccc1Nc1ncc2c(n1)N(C1CCCC1)c1ccccc1C(=O)N2C [Compound 26] in your answer.
OUT: 96

IN: Name the recorded KINOMEscan: FER of the item COc1cc(C(=O)N2CCC(N3CCN(C)CC3)CC2)ccc1Nc1ncc2c(n1)N(C1CCCC1)c1ccccc1C(=O)N2C [Compound 25] in your answer.
OUT: 38

IN: Name the recorded KINOMEscan: FER of the item COc1cc(C(=O)N2CCC(N3CCN(C)CC3)CC2)ccc1Nc1ncc2c(n1)N(C)c1ccccc1C(=O)N2C [15 (LRRK2-IN-1)] in your answer.
OUT: 51
